Target: T1, AAV5
T1 construct: also called adeno-associated virus serotype 5
Test: SPR, AAV on CM5 chip;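 also: surface plasmon resonance with AAV amine-coupled to the chip as ligand, nanobodies injected as analyte over a concentration series, rate constants and affinity fitted from binding curves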
Quantity name: pKd
Please treat pKd as minus the base-10 logarithm of the molar concentration.

INSERT INTO measurements (binder, quantity_name, observed_measurement) VALUES
  ('A4-021 (VHH) VHH: VQLQESGGGLVQAGGSLRLSCAASGSTFSINTMGWYRQAPGKQRELVATITRGGNTNYADSVKGRFTISRDNAKNTVYLQMNSLRPEDTAVYYCHVDEVRQSSWTTSNIWGQGTQVTVSS', 'pKd', 8.11),
  ('A4-019 (VHH) VHH: VQLQESGGGLVQAGGSLRLSCAASGSTFSINTMGWYRQAPGKQRELVATITRGGSTNYADSVKGRFTISRDNAKNTVYLQMNSLRPEDTAVYYCHVDEVRQSSWTTSNIWGQGTQVTVSS', 'pKd', 7.31);

Item: A4-002 (VHH) VHH: VQLQESGGGLVQPGGSLRLSCAASGRSFSINTMGWYRQAPGKQRELVAAVTRGGSTNYAGSVKGRFTISRDNAKNTVYLQMNSLRPEDTAVYYCHIDEVRQSSWTTSNIWGQGTQVTVSS | pKd: 6.86

Item: A4-036 (VHH) VHH: VQLQESGGGLAQAGGSLRLSCAASGRGFSINTMGWYRQAPGKQRELVAAVTRGGTTNYADSVKGRFTISRDNAKNTVYLQMNSLRPEDTAVYYCHVDEVRQSSWTTSNLWGQGTQVTVSS | pKd: 6.09

// data source = patent US20260193326A1
